Experiment: physchem
Settings: octanol/water
Description: Partition coefficient (logP)
PROPERTY: logP

Here are 7 compounds together with their reported answers.
COMPOUND: S=C1CC(c2cc(=S)ss2)SS1 (centres undefined)
logP: 1.8
//
COMPOUND: NC(=O)c1cc(=S)ss1
logP: 0.01
//
COMPOUND: O=C(O)c1cc(=S)ss1
logP: 1.05
//
COMPOUND: S=c1ssc2c1CCCCCCCC2
logP: 2.53
//
COMPOUND: O=C(O)c1cssc1=S
logP: 1.33
//
COMPOUND: Cc1c(-c2cnccn2)ssc1=S
logP: 2.79
//
COMPOUND: CC(C)(C)c1cc(=S)ss1
logP: 3.25

A = NC(=O)c1cssc1=S
B = Cc1cc(=S)ss1
Q: Of A and B , which one carries the higher reported logP? # reply format: chosen label
Result: B

====

Consider compounds characterized by their Log CDQR with NAD(P)H dehydrogenase [quinone] 1 (Homo sapiens) (UniProt P15559).
Sequence (P15559 whole entry): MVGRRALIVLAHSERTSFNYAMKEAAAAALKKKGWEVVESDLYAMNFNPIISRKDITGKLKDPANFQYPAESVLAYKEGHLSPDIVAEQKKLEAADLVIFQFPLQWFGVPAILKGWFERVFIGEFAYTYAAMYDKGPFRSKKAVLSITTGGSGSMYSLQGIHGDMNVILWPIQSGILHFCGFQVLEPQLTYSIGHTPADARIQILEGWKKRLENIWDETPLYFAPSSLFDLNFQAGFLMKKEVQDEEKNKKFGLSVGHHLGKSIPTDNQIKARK
PROPERTY: Log CDQR

Here are 3 compounds together with their reported answers.
COMPOUND: CC(C)(C)c1cc(=S)ss1
Log CDQR: 0.699
--
COMPOUND: O=C(O)c1cc(=S)ss1
Log CDQR: 1.9
--
COMPOUND: NC(=O)c1cssc1=S
Log CDQR: 1.66

P = CCc1cc(=S)ss1
Q = Cc1c(-c2cnccn2)ssc1=S [OLTIPRAZ]
R = S=c1sscc1-c1ccccc1
S = S=c1ccss1
T = S=c1ssc2c1CCCCCCCC2
Q: Descending sort on Log CDQR required. Show the ranking through the labels, in the order asked for.
Result: Q, P, R, S, T

====

Consider compounds characterized by their Log CDQR with NAD(P)H dehydrogenase [quinone] 1 (Homo sapiens) (UniProt P15559).
PROPERTY: Log CDQR

Here are 6 compounds together with their reported answers.
COMPOUND: NC(=O)c1cc(=S)ss1
MEASUREMENT_TARGET: NAD(P)H dehydrogenase [quinone] 1 (Homo sapiens) (UniProt P15559)
Log CDQR: 1.3
--
COMPOUND: O=C(O)c1cssc1=S
MEASUREMENT_TARGET: NAD(P)H dehydrogenase [quinone] 1 (Homo sapiens) (UniProt P15559)
Log CDQR: 1.38
--
COMPOUND: S=c1cc(-c2ccccc2)ss1
MEASUREMENT_TARGET: NAD(P)H dehydrogenase [quinone] 1 (Homo sapiens) (UniProt P15559)
Log CDQR: 1.3
--
COMPOUND: Cc1ssc(=S)c1C
MEASUREMENT_TARGET: NAD(P)H dehydrogenase [quinone] 1 (Homo sapiens) (UniProt P15559)
Log CDQR: 1.34
--
COMPOUND: Cc1cc(=S)ss1
MEASUREMENT_TARGET: NAD(P)H dehydrogenase [quinone] 1 (Homo sapiens) (UniProt P15559)
Log CDQR: 1.23
--
COMPOUND: CCc1cssc1=S
MEASUREMENT_TARGET: NAD(P)H dehydrogenase [quinone] 1 (Homo sapiens) (UniProt P15559)
Log CDQR: 0.903

a = Cc1cssc1=S
b = COc1ccc(-c2ssc(=S)c2C)cc1
c = S=C1CC(c2cc(=S)ss2)SS1 (stereo not given)
Q: Descending sort on Log CDQR required. Show the ranking through the labels, in the order asked for.
Result: b, a, c
